- assayOverview: Selectivity index, CC50 for african green monkey Vero cells to EC50 for HIV1 3B
- Format: toxicity, cell-based
- experimentalParameters: read-out: Ratio CC50/EC50
Would you kindly list selectivity ratio for each of these compounds?

CC1=C[C@]23C(=O)[C@@H](C=C(CO)[C@@H](O)[C@]2(O)[C@H]1O)[C@H]1[C@@H](C[C@H]3C)C1(C)C; > 2
CC1=C[C@H]2[C@@]3(O)[C@H](C)[C@@H](O)[C@]4(O)[C@H]([C@@H]3C=C(CO)C[C@]2(O)C1=O)C4(C)C; > 1

Below: the item to evaluate.
For CC(=O)O[C@@H]1[C@@H](C)[C@@]2(O)[C@@H](C=C(CO)C[C@]3(O)C(=O)C(C)=C[C@@H]23)[C@@H]2C(C)(C)[C@]12OC(C)=O , what is its reported selectivity ratio?
> 59

----------
- Tested on: Human immunodeficiency virus 1
- assayOverview: Antiviral activity against HIV1 3B infected in MT4 cells assessed as cell viability after 5 days by MTT assay
- Format: functional, organism-based
- experimentalParameters: Human immunodeficiency virus 1, 3B, MT4, 120 h
measurementKind: EC50

Example results:
CC(=O)OCC1=C[C@H]2[C@@H]3C(C)(C)[C@]3(OC(C)=O)[C@H](O)[C@@H](C)[C@]2(O)[C@@H]2C=C(C)C(=O)[C@@]2(O)C1; > 279 µM
CCCCCCCCCCCCCC(=O)O[C@@H]1[C@@H](C)[C@@]2(O)[C@@H](C=C(CO)C[C@@]3(O)C(=O)C(C)=C[C@@H]23)[C@@H]2C(C)(C)[C@]12OC(C)=O; > 18 µM

API: value(readout=EC50, system=Human immunodeficiency virus 1) for record CCCC(=O)O[C@@H]1[C@@H](C)[C@@]2(O)[C@@H](C=C(C=O)C[C@]3(O)C(=O)C(C)=C[C@@H]23)[C@@H]2C(C)(C)[C@]12OC(=O)CCC
> 20 µM
